# Tested on: A2780
# method: Anti-proliferative effect (CellTiter-Glo, 72 h), A2780
# Format: cell-based
# test_parameters: A2780 cells, median, read-out: IC50 antiproliferation assay A2780 [M] (median)
Entries and their measured IC50 follow.

Solved entries:
[[record]]
molecule = "Cc1cc(OCCCc2c(C(=O)O)n3c4c(cccc24)-c2c(C)nn(C)c2COCCC3)cc(C)c1Cl (single isomer, unassigned; enantiomer 1) [Example 014]"
measured = "> 3.3e-05 M"

[[record]]
molecule = "Cn1nc(CN2CCOCC2)c2c1COCCCn1c(C(=O)O)c(CCCOc3cccc4ccccc34)c3cccc-2c31 (single isomer, unassigned; enantiomer 1) [Example 139]"
measured = "> 3.3e-05 M"


*Q* Indicate the recorded IC50 value for this molecule: CN1CCCn2c(C(=O)O)c(CCCOc3cccc4ccccc34)c3cccc(c32)-c2c(COc3ccc(N4CCOCC4)cc3)nn(C)c2C1 (single isomer, unassigned)
*A* > 3.3e-05 M
